- System Name: soluble guanylate cyclase (sGC) (Homo sapiens, UniProt Q02108+Q02153)
- Construct: endogenously expressing soluble guanylate cyclase (sGC); endogenous in cells; host or cells: HEK293
- Sequence (Q02153 whole entry): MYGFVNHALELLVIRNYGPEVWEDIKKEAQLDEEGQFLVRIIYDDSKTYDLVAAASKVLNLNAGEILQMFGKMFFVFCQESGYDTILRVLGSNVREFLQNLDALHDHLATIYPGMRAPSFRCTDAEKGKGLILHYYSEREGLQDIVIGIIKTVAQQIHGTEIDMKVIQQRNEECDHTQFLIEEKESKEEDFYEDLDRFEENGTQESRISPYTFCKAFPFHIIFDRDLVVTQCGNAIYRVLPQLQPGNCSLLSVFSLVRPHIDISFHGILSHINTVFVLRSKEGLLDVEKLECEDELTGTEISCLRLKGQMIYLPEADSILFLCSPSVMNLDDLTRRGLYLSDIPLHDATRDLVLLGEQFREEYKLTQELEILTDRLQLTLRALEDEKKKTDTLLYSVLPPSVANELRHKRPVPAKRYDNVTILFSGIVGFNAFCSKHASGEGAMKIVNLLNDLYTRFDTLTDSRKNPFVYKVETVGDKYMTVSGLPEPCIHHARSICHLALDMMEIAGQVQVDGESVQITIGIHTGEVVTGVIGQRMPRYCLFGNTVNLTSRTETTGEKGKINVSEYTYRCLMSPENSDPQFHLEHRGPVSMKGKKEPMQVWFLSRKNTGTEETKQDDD
- Sequence (Q02108 whole entry): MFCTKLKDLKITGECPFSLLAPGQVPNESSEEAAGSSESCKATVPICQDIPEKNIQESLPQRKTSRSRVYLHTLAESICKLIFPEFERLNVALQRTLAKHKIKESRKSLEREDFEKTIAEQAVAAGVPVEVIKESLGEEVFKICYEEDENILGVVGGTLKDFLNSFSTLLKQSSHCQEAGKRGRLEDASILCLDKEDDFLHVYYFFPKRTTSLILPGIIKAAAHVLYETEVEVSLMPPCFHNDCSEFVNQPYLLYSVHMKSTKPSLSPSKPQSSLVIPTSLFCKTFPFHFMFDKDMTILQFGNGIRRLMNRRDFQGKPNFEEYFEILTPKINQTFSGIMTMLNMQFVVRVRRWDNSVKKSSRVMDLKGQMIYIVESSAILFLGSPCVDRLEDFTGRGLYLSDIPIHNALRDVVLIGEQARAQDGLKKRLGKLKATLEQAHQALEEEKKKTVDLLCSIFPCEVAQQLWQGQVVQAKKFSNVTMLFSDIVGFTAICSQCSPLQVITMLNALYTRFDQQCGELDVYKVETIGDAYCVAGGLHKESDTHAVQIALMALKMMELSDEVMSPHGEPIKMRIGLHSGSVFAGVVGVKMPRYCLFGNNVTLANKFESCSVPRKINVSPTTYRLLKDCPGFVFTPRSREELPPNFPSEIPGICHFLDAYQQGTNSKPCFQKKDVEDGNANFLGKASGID
- Protocol: sGC-HEK-cGMP assay (run with SNP incubation)
- Assay type: cell-based
- Stated Conditions: concentration that would elicit 10% of the Emax in the presence of 10 μM SNP; Table 3F
Property: HEK MEC-10

Molecule	Property	Reported Result
Fc1ccccc1Cn1nc(-c2ncc3cn[nH]c3n2)cc1-c1ccon1 [Compound 113]	HEK MEC-10	C (0.1 to <1 μM)
Nc1nc(-c2cc(-c3ccon3)n(Cc3cccc(F)c3F)n2)ncc1NC(=O)c1cc[nH]c1 [Compound 105]	HEK MEC-10	B (0.01 to <0.1 μM)
Cn1cnc2nc(-c3cc(-c4ccon4)n(Cc4ccccc4F)n3)ncc21 [Compound 109]	HEK MEC-10	D (1 to <10 μM)
Nc1nc(-c2cc(-c3ccon3)n(Cc3cccc(F)c3F)n2)ncc1NC(=O)C12CC3CC(CC(O)(C3)C1)C2 [Compound 107]	HEK MEC-10	C (0.1 to <1 μM)
CC1(C)C(=O)Nc2nc(-c3cc(-c4ccon4)n(Cc4ccccc4F)n3)nc(N)c21 [Compound 99]	HEK MEC-10	B (0.01 to <0.1 μM)
N#Cc1nc(-c2cc(-c3ccon3)n(Cc3ccccc3F)n2)ncc1F [Compound 115]	HEK MEC-10	D (1 to <10 μM)
CC1(C)C(=O)Nc2nc(-c3cc(-c4ccon4)n(Cc4ccccc4F)n3)ncc21 [Compound 100]	HEK MEC-10	C (0.1 to <1 μM)
CC(=O)Nc1n[nH]c2nc(-c3cc(-c4ccon4)n(Cc4ccccc4F)n3)ncc12 [Compound 114]	HEK MEC-10	A (0.001 to <0.01 μM)
Fc1ccccc1Cn1nc(-c2ncc3[nH]cnc3n2)cc1-c1ccon1 [Compound 110]	HEK MEC-10	C (0.1 to <1 μM)
Nc1nc(-c2cc(-c3ccon3)n(Cc3cccc(F)c3F)n2)ncc1NC(=O)c1ccc(C(F)(F)F)cc1 [Compound 101]	HEK MEC-10	A (0.001 to <0.01 μM)
Nc1nc(-c2cc(-c3ccon3)n(Cc3cccc(F)c3F)n2)ncc1NC(=O)c1ccc[nH]1 [Compound 103]	HEK MEC-10	A (0.001 to <0.01 μM)
Nc1nc(-c2cc(-c3ccon3)n(Cc3ccccc3F)n2)ncc1NC(=O)C(Cl)(Cl)Cl [Compound 98]	HEK MEC-10	B (0.01 to <0.1 μM)
COc1nc(-c2cc(-c3ccon3)n(Cc3ccccc3F)n2)nc(Cl)c1F [Compound 116]	HEK MEC-10	D (1 to <10 μM)
NC1=NNC2NC(c3cc(-c4ccon4)n(Cc4ccccc4F)n3)=NC=C12 (stereo not shown) [Compound 118]	HEK MEC-10	B (0.01 to <0.1 μM)
CN(C)Cc1cccc(C(=O)Nc2cnc(-c3cc(-c4ccon4)n(Cc4cccc(F)c4F)n3)nc2N)c1 [Compound 104]	HEK MEC-10	C (0.1 to <1 μM)
Nc1nc(-c2cc(-c3ccon3)n(Cc3ccccc3F)n2)ncc1NC(=O)CCC(F)(F)F [Compound 111]	HEK MEC-10	B (0.01 to <0.1 μM)
